Let's look at some compounds and their measured pIC50.
TARGET UNDER TEST: UniProtKB P56817
ASSAY COMMENT: Inhibition of human BACE1 expressed in Escherichia coli BL21(DE3) using Swedish mutant sequence Eu-EVNLDAEFK-Quencher substrate by homogeneous time resolved fluorescence assay
Please note pIC50 is a logarithmic value: minus log10 of concentration in mol/L. Answer with that number alone.

Q. Answer with the recorded pIC50 for the compound listed here: CC(C)[C@H](NC(=O)C(O)(CCC(=O)Nc1cc(C(=O)N[C@H](C)c2ccccc2)cc(N(C)S(C)(=O)=O)c1)CCc1ccccc1)C(=O)Nc1ccccc1 (stereo in doubt; 39-(A))
A. 6.64

***
Q. Item CC(C)[C@H](NC(=O)CCC(O)(CCc1ccccc1)C(=O)Nc1cc(C(=O)N[C@H](C)c2ccccc2)cc(N(C)S(C)(=O)=O)c1)C(=O)NCc1ccccc1 (stereo not given in full) : provide pIC50
A. 5.25

====

Listing of recorded IC50 by entry.
TARGET UNDER TEST: Beta-secretase 1 (Homo sapiens, UniProt P56817)
Sequence (P56817 whole entry): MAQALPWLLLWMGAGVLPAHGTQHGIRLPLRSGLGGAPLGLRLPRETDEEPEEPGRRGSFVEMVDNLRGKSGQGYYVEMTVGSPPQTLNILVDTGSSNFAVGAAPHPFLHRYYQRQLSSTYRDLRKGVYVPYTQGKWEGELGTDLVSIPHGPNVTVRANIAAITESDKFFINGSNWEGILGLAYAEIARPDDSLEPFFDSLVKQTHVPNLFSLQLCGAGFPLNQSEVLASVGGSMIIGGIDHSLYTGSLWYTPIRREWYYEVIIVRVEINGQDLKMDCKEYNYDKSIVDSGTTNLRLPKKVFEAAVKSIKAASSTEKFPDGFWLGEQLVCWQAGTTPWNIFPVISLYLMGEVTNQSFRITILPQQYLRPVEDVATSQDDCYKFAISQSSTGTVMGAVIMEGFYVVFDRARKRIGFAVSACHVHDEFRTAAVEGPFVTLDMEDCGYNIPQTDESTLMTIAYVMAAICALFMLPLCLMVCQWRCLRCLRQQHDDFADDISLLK
ASSAY COMMENT: Inhibition of human BACE1 expressed in Escherichia coli BL21(DE3) using Swedish mutant sequence Eu-EVNLDAEFK-Quencher substrate by homogeneous time resolved fluorescence assay
Entry rule: numbers only, all in µM.

Q. Using Beta-secretase 1 (Homo sapiens, UniProt P56817) as the test system, report measured IC50 of C[C@@H](NC(=O)c1cc(NC(=O)CC[C@@](O)(Cc2ccccc2)C(=O)N[C@H]2c3ccccc3C[C@H]2O)cc(N(C)S(C)(=O)=O)c1)c1ccccc1 .
A. 4.6

In the following, a different compound is considered.
Q. Fetch value of IC50 on Beta-secretase 1 (Homo sapiens, UniProt P56817) for COC(=O)c1ccc(NC(=O)[C@@H](NC(=O)CCC(O)(Cc2ccccc2)C(=O)Nc2cc(C(=O)N[C@H](C)c3ccc(F)cc3)cc(N(C)S(C)(=O)=O)c2)C(C)C)cc1 (stereo partly drawn) .
A. 4

====

Each entry below lists one item and its recorded pIC50 value.
TARGET UNDER TEST: Beta-secretase 1 (Homo sapiens)
ASSAY COMMENT: Inhibition of human BACE1 expressed in Escherichia coli BL21(DE3) using Swedish mutant sequence Eu-EVNLDAEFK-Quencher substrate by homogeneous time resolved fluorescence assay
Just the number, please; pIC50 means minus log10 of the concentration in mol/L.

Consider the reported pIC50 for these molecules:
Q. With Beta-secretase 1 (Homo sapiens) as the test system, provide measured pIC50 for this molecule: C[C@@H](NC(=O)c1cc(NC(=O)CCC(O)(CCc2ccccc2)C(=O)N[C@H]2c3ccccc3C[C@H]2O)cc(N(C)S(C)(=O)=O)c1)c1ccccc1 (stereo in doubt; 37-(B))
A. 6.60

Q. Answer with pIC50 of CC(C)[C@H](NC(=O)C(O)(CCC(=O)Nc1cc(C(=O)N[C@H](C)c2ccccc2)cc(N(C)S(C)(=O)=O)c1)CCc1ccccc1)C(=O)NCc1ccccc1 (some centres not stated) measured for Beta-secretase 1 (Homo sapiens).
A. 6.35

Q. Identify measured pIC50 obtained with Beta-secretase 1 (Homo sapiens) for C[C@@H](NC(=O)c1cc(NC(=O)CC[C@](O)(Cc2ccccc2)C(=O)N[C@H]2c3ccccc3C[C@H]2O)cc(N(C)S(C)(=O)=O)c1)c1ccccc1 .
A. 5.60

Q. Write down the reported pIC50 (system: Beta-secretase 1 (Homo sapiens)) of CC(C)[C@H](NC(=O)C(O)(CCC(=O)Nc1cc(C(=O)N[C@H](C)c2ccccc2)cc(N(C)S(C)(=O)=O)c1)CCc1ccccc1)C(=O)Nc1ccccc1 (single isomer, unassigned)
A. 6.49

Q. Fill in: pIC50 on Beta-secretase 1 (Homo sapiens), entry CC(C)[C@H](NC(=O)CCC(O)(Cc1ccccc1)C(=O)Nc1cc(C(=O)N[C@H](C)c2ccc(F)cc2)cc(N(C)S(C)(=O)=O)c1)C(=O)NCc1ccccc1 (some centres not stated)
A. 5.23

Now for the molecule whose pIC50 we want.
Q. Given C[C@@H](NC(=O)c1cc(NC(=O)CCC(O)(CCc2ccccc2)C(=O)N[C@H]2c3ccccc3C[C@H]2O)cc(N(C)S(C)(=O)=O)c1)c1ccccc1 (stereo in doubt; 36-(A)) , report its pIC50 on Beta-secretase 1 (Homo sapiens).
A. 6.24

====

# key: entry, value: pIC50
TARGET UNDER TEST: Beta-secretase 1 (Homo sapiens)
ASSAY COMMENT: Inhibition of human BACE1 expressed in Escherichia coli BL21(DE3) using Swedish mutant sequence Eu-EVNLDAEFK-Quencher substrate by homogeneous time resolved fluorescence assay
pIC50: −log10 of the molar value.

Q. Write down measured pIC50 (Beta-secretase 1 (Homo sapiens)) for this compound. CC(C)[C@H](NC(=O)CCC(O)(Cc1ccccc1)C(=O)Nc1cc(C(=O)N[C@H](C)c2ccc(F)cc2)cc(N(C)S(C)(=O)=O)c1)C(=O)Nc1ccc(C(=O)O)cc1 (stereo partly drawn)
A. < 5.00

Q. Determine reported pIC50 for CC(C)[C@H](NC(=O)CCC(O)(Cc1ccccc1)C(=O)Nc1cc(C(=O)N[C@H](C)c2ccc(F)cc2)cc(N(C)S(C)(=O)=O)c1)C(=O)NCc1ccc(C(=O)O)cc1 (stereo partly drawn) ; test system: Beta-secretase 1 (Homo sapiens).
A. < 5.00

# next compound below
Q. State pIC50 on Beta-secretase 1 (Homo sapiens). Entry: COC(=O)c1ccc(CNC(=O)[C@@H](NC(=O)CCC(O)(Cc2ccccc2)C(=O)Nc2cc(C(=O)N[C@H](C)c3ccc(F)cc3)cc(N(C)S(C)(=O)=O)c2)C(C)C)cc1 (stereo partly drawn)
A. < 5.00
